# TARGET_OF_ASSAY: T1, human VEGF165 (human, UniProt P15692)
# T1 chain: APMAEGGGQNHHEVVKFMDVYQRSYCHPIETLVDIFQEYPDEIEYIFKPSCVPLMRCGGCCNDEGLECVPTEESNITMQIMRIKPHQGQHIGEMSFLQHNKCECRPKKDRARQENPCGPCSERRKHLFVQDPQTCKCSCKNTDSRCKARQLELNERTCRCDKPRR
# EXPERIMENT_DESCRIPTION: SPR, pH 5
Below, each of the binders is paired with its reported Kd value.
Give the value in nM but do not write nM after it.

1. 567-max (antibody, V domains shown) VH: EVQLVESGGGLVQPGGSLRLSCSVSGFSLSDYYMCWVRQAPGKGLEWVGCLDYFGSTDDASWAKGRFTISKDTSKNTVYLQMNSLRAEDTAVYYCARTDDSRGWGLNIWGQGTLVTVSS VL: EIVMTQSPSTLSASVGDRVIITCQADQSIYIWLSWYQQKPGKAPKLLIYKASTLESGVPSRFSGSGSGTQFTLTISSLQPDDFATYYCQNNAHYSTNGGTFGQGTKLTVLG	0.188

Quick one: Kd for 567-min (antibody, V domains shown) VH: EVQLVESGGGLVQPGGSLRLSCAASGFSLSDYYMCWVRQAPGKGLEWVSCLDYFGSTDDASWAKGRFTISRDNSKNTLYLQMNSLRAEDTAVYYCAKTDDSRGWGLNIWGQGTLVTVSS VL: EIVMTQSPSTLSASVGDRVIITCQADQSIYIWLSWYQQKPGKAPKLLIYKASTLESGVPSRFSGSGSGAEFTLTISSLQPDDFATYYCQNNAHYSTNGGTFGQGTKLTVLG ?
0.23

Record: 375-max (antibody, V domains shown) VH: EVQLVESGGGLVQPGGSLRLSCKASGFSFTTTDYMCWVRQAPGKGLEWVGCILAGDGSTYYANWAKGRFTGSKDTSKNTVYLQMNSLRAEDTAVYYCARSDPASSWSFALWGQGTLVTVSS VL: EIVMTQSPSTLSASVGDRVIITCQASENINIWLSWYQQKPGKAPKLLIYQASKLASGVPSRFSGSGSGTQFTLTISSLQPDDFATYYCQNNYSYNRYGAPFGQGTKLTVLG
2.68
